test system: CYP1A2, CYP2C9, CYP2C19, CYP2D6 and CYP3A4 (one value for the five species); experiment: CYP inhibition test, five CYP species together (5CYPs_IC50; pooled human liver microsome); format: in vitro ADME; conditions: human, microsomes
quantity name: IC50 at 15 min

// solved cases for IC50 at 15 min follow
>  <compound>
Cc1nc(NC(=O)Nc2ccccc2C(=O)NC(C)C)sc1-c1csc(S(=O)(=O)N(C)CCN(C)C)c1

>  <IC50 at 15 min>
≥ 10 µM

$$$$
>  <compound>
CC(C)NC(=O)c1ccccc1NC(=O)Nc1nc2c(s1)CN(c1ccc(C(F)(F)F)cc1)CC2

>  <IC50 at 15 min>
> 20 µM

$$$$
>  <compound>
COc1cc(N2CCc3nc(NC(=O)Nc4ccccc4C(=O)NCCF)sc3C2)nc(OC)n1

>  <IC50 at 15 min>
≥ 10 µM

$$$$
>  <compound>
COc1cc(N2CCc3nc(NC(=O)Nc4cn(C)nc4C(=O)NC(CO)CO)sc3C2)nc(OC)n1

>  <IC50 at 15 min>
> 20 µM

$$$$

Below is a list of compounds. For each, state its recorded IC50 at 15 min.
1. CC(=O)c1cccc(-c2ccc3nc(NC(=O)Nc4ccccc4OCCC(C)C)sc3n2)c1
2. CC(C)NC(=O)c1ccccc1NC(=O)Nc1nc2c(s1)CN(c1cncc(C(F)(F)F)c1)CC2
3. COc1cc(N2CCc3nc(NC(=O)Nc4ccc(F)cc4C(=O)NC(C)C)sc3C2)cnc1OC
4. COc1cc(N2CCc3nc(NC(=O)Nc4ccccc4C(=O)NC4CCOCC4)sc3C2)nc(OC)n1
5. CC(C)NC(=O)c1ccccc1NC(=O)Nc1nc2c(s1)CN(c1cncc(S(=O)(=O)N(C)C)c1)CC2
6. CC(C)NC(=O)c1ccccc1NC(=O)Nc1nc2c(s1)CN(c1ccc(S(C)(=O)=O)cc1)CC2

1. ≥ 10 µM
2. ≥ 10 µM
3. ≥ 10 µM
4. > 20 µM
5. > 20 µM
6. > 20 µM

Below is a list of compounds. For each, state its recorded IC50 at 15 min.
1. COc1cncc(-c2ccc3nc(NC(=O)Nc4ccccc4OCCC(C)C)cn3n2)c1
2. CC(=O)c1cccc(-c2ccc3nc(NC(=O)Nc4ccccc4N4CCCC4=O)nn3c2)c1

1: > 20 µM; 2: ≥ 10 µM

Below is a list of compounds. For each, state its recorded IC50 at 15 min.
1. COc1cc(N2CCc3nc(NC(=O)Nc4ccccc4C(=O)NCC#N)sc3C2)nc(OC)n1
2. COc1cc(N2CCc3nc(NC(=O)Nc4ccccc4C(=O)NC4CCNCC4)sc3C2)nc(OC)n1
3. O=C(Nc1nc2c(s1)CN(c1cncc(C(F)(F)F)c1)CC2)Nc1ccccc1C(=O)NC(CO)CO

1: ≥ 10 µM; 2: ≥ 10 µM; 3: ≥ 10 µM

====

biological target: PI3Kγ (Homo sapiens, UniProt P48736); experiment: PI3Kγ inhibitory activity (Ki value); assay type: biochemical; conditions: read-out: PI3Kγ Ki value
Sequence (P48736 whole entry, species assumed): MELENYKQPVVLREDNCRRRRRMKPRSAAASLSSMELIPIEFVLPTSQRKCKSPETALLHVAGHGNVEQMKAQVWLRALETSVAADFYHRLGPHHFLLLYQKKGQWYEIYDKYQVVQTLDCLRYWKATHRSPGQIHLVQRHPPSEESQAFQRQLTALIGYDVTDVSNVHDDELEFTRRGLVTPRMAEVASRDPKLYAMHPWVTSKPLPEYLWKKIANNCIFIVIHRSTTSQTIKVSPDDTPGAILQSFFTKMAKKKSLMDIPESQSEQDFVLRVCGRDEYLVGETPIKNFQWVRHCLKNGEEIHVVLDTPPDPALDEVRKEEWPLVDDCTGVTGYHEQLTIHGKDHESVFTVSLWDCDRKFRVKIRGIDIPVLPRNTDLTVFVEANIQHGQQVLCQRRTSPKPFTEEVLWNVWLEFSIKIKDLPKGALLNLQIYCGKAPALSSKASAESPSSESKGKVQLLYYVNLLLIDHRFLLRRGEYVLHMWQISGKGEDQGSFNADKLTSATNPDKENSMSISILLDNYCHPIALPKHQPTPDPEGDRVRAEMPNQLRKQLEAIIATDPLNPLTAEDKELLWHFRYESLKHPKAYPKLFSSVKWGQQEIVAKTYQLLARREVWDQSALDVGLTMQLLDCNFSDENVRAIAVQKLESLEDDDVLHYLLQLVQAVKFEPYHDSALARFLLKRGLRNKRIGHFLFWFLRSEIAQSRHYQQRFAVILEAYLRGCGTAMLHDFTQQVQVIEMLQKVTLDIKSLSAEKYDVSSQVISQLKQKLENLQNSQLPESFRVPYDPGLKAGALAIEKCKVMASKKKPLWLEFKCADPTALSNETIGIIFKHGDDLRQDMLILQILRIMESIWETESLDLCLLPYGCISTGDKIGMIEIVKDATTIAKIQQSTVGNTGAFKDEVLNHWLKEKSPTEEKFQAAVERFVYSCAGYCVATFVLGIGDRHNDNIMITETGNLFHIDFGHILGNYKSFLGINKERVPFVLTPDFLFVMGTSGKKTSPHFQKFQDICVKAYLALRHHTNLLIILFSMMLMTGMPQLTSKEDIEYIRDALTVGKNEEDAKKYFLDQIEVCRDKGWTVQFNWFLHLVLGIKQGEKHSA
For each record, write down the corresponding Ki.
Number plus unit, in that order.

>  <compound>
Cc1nc(NC(=O)Nc2ccccc2C(=O)NC(C)C)sc1-c1csc(S(=O)(=O)N(C)CCN(C)C)c1 [Compound I-191]

>  <Ki>
300 nM

$$$$

Below is a list of compounds. For each, state its recorded Ki.
1. COc1cc(N2CCc3nc(NC(=O)Nc4ccccc4C4=NC(C)(C)CO4)sc3C2)nc(OC)n1 [Compound I-14]
2. COc1cncc(-c2cc(NC(=O)Nc3ccccc3OCCC(C)C)nn2C)c1 [Compound I-221]

1. 54 nM
2. 680 nM
